# Tested on: Wolbachia pipientis
# RUN DESCRIPTION: Anti-Wolbachia Cell-Based Screen
# Assay type: functional
# Design: scale not given: in the data most compounds retested in dose-response had high values
# MEASUREMENT CONTEXT: 5 µM
Out of some 48,000 compounds screened, about 13,000 (27%) showed an effect of 50% or more. Some of the results follow.
For each record, write down the corresponding Percent Effect.
Answers are plain numbers, in %.

[in] Lab request: please report Percent Effect under test system Wolbachia pipientis for COC1COC2(CCN(Cc3ccccc3Cl)CC2)C1.O=C(O)C(F)(F)F (stereo unspecified)
[out] -10.24

[in] Short answer please: Percent Effect, Wolbachia pipientis, entry `c1ccc2c(Cc3nnc([C@H]4CCN(C5CCOCC5)C4)o3)c[nH]c2c1`
[out] 1.602

[in] For the record `CC(C)(C)C(=O)N1C[C@H](c2ccsc2)[C@H]2CN(C3CCCC3)CC[C@H]21.Cl` , what value of Percent Effect is listed for Wolbachia pipientis?
[out] 191.9

[in] Please state recorded Percent Effect (tested on Wolbachia pipientis) of `CN1CCN(C(=O)c2cccc(CN3CCOCC3)c2)CC1`
[out] 132.9

[in] Form: Entry = COC(=O)CS(=O)(=O)CCC(=O)N1CCCC1c1ccsc1 (stereo unspecified) | System = Wolbachia pipientis | Percent Effect = ____
[out] 0.3686

[in] Provide value of Percent Effect for this record tested with Wolbachia pipientis: `O=C(CSc1ccc2c(c1)OCCO2)NS(=O)(=O)c1ccccc1Cl`
[out] -4.158

Look at each compound and report its Percent Effect.
1. CNC(=O)COC1COC2(CCN(Cc3cccnc3OC)CC2)C1.O=C(O)C(F)(F)F (stereo unspecified)
2. O=C(c1nc(Cc2c[nH]c3ccccc23)no1)N1CCCCC1
3. Cc1ccc(C(=O)N2CC[C@@H]3[C@H]2CCC(=O)N3CCN(C)C)cn1.O=C(O)C(F)(F)F.O=C(O)C(F)(F)F

[out]
1: 91.78; 2: 107.9; 3: 19.11

# return Percent Effect for each item in the list
1. O=S(=O)(NCC1(O)CCOCC1)c1ccccc1Br
2. COc1cc(-c2nccn2C(C)CCn2cccn2)cc2c1OCO2 (stereo unspecified)
3. O=C(c1cccc(NCCO)c1)N1CCOCC1
4. COc1ccc(C2(C(=O)N3CC[C@@]4(O)CCNC[C@H]4C3)CCCC2)cc1
5. Cc1c(CN2CC[C@@H](N3CCC(O)CC3)[C@H](O)C2)[nH]c2ccc(Cl)cc12
6. CC(C)c1cc2c(O)nc(CSCC(=O)O)nc2s1
7. Cn1cc(N2CCC(NC(=O)c3c(F)cccc3Cl)C2=O)cn1 (stereo unspecified)

[out]
1: 8.924; 2: -13.68; 3: 0.9463; 4: -11.98; 5: 105.3; 6: 30.38; 7: -23.29

// each compound listed below needs its Percent Effect
1. O=C(Nc1cccc(C(F)F)c1)N[C@@H]1C=C[C@H](CO)C1
2. CC1CCCN(C(=O)c2cccc(CS(C)(=O)=O)c2)C1 (stereo unspecified)
3. CN(Cc1ccc2nsnc2c1)CC1(O)CCNC1 (stereo unspecified)

[out]
1. -9.569
2. -2.941
3. 4.818

For the 3 compounds below, give their Percent Effect values.
1. CN1CCN([C@@H]2CCN(Cc3cccc(-n4cccn4)c3)C[C@H]2O)CC1
2. CN(Cc1ccsc1)C(=O)c1nc(N2CCCC2)ncc1Cl
3. CC(C)(C)C(=O)N1C[C@H](c2ccsc2)[C@H]2CN(Cc3cccs3)CC[C@H]21.Cl

[out]
[-7.292, -53.64, 6.375]

----------
# Test system: Wolbachia pipientis
# RUN DESCRIPTION: Anti-Wolbachia Cell-Based Screen
# Type: functional
# Design: scale not given: in the data most compounds retested in dose-response had high values
# MEASUREMENT CONTEXT: 5 µM
The whole screen tested about 48,000 compounds, of which about 13,000 (27%) showed an effect of 50% or more. This is one part of the list.
ENDPOINT LABEL: Percent Effect (%)
One number for each entry, in %.

Worked cases, answers included:
[in] Entry `CC(C)(C)c1cnc(CN2CCC(NC(=O)Nc3ccccc3)CC2)o1` : reported Percent Effect = ?
[out] 8.013

[in] Item under review: COCC1CC2(CCN(C(=O)c3ccc(OC)c(Cl)c3)CC2)CO1 (stereo unspecified) . Reported Percent Effect?
[out] 1.634

[in] I have this compound here, COCCn1cc(C(=O)N2CCCC2c2cc(C)no2)ccc1=O (stereo unspecified) , and I need its recorded Percent Effect.
[out] -14.99

Give Percent Effect for each listed item.
1. CCC1CN(c2cnn(-c3ccccc3)c(=O)c2Cl)CCO1 (stereo unspecified)
2. Cc1ccc(CNS(=O)(=O)CC2=NC(=O)n3cccc3C2=O)cc1
3. COCCOC(=O)N1CC2=CC(C)(C)COc3ccc(OC)c(c32)C1

[out]
[4.552, 16.21, 110]

----------
Would you kindly list Percent Effect for each of these compounds?
# System: Wolbachia pipientis
# RUN DESCRIPTION: Anti-Wolbachia Cell-Based Screen
# Type: functional
# Design: scale not given: in the data most compounds retested in dose-response had high values
# MEASUREMENT CONTEXT: 5 µM
The campaign covered roughly 48,000 compounds. About 13,000 (27%) showed an effect of 50% or more. Some of the results follow.
One number for each entry, in %.

[in] // Percent Effect lookup, key: CCC(CC)NC(=O)c1cccnc1N1CCCC1c1ccccn1 (centres undefined)
[out] 119.8

[in] # get_value(readout='Percent Effect', item= `Cc1cs/c(=N\C(=O)c2c3c(nc4onc(C)c24)CCC3)[nH]1` )
[out] 113

[in] May I ask what Percent Effect has been recorded for Cc1cc(C(F)(F)F)nc(CNC(=O)CCC2CCCCN2C)n1 (centres undefined) ?
[out] -1.594

Okay, next one:
[in] // returns reported Percent Effect for input CCC(C(=O)NCCc1nc(C)cc(C(F)(F)F)n1)n1cccn1 (centres undefined)
[out] 110

----------
Give measured Percent Effect for each item. Keep answers brief.
# Tested on: Wolbachia pipientis
# RUN DESCRIPTION: Anti-Wolbachia Cell-Based Screen
# Type: functional
# Set-up: scale not given: in the data most compounds retested in dose-response had high values
# MEASUREMENT CONTEXT: 5 µM
The whole screen tested about 48,000 compounds, of which about 13,000 (27%) showed an effect of 50% or more. The list shows a part of the results.
Numbers only, in %.

Guide cases for Percent Effect, answers given:
[in] Would you kindly share the measured Percent Effect for CC(NC(=O)NCc1cccc(Cl)c1)(C(=O)O)c1ccco1 (configuration not stated) ?
[out] 5.605

[in] # query: Percent Effect of entry Cc1nc2ccccc2nc1CN(C)CC1CCCN1c1cccnn1 (configuration not stated)
[out] 5.031

[in] Which Percent Effect is listed for `CCc1cnc(N2CC[C@H]3[C@@H]2CCC(=O)N3CC2CCOCC2)nc1.O=C(O)C(F)(F)F` ?
[out] -1.93

Okay, here is my list. What is Percent Effect for each of these?
1. Cc1noc(C)c1CN1CC[C@H]2[C@@H]1CCC(=O)N2CC1CCOCC1.O=C(O)C(F)(F)F
2. O=C1CC[C@@H]2[C@@H](CCN2C(=O)C2CCOCC2)N1CC1CC1
3. CC(NC(=O)NCCN1CCCCCC1=O)c1ccc(Cl)s1 (configuration not stated)
4. Cc1ccc(C(=O)N2CC[C@@H]3[C@H]2CCC(=O)N3CC2CC2)o1
5. CN(Cc1nc(N)c2ccccc2n1)CC1CCCN1c1cccnn1 (configuration not stated)
6. O=C(O)C(F)(F)F.O=C1CC[C@H]2[C@H](CCN2c2ccccn2)N1CC1CCOCC1

[out]
1: 107.1; 2: -4.769; 3: -4.831; 4: 4.088; 5: -0.6342; 6: -16.88

Count: 2. Required value per item: Percent Effect.
1. CN(Cc1ccc(-n2cccn2)cc1)CC1CCCN1c1cccnn1 (configuration not stated)
2. O=C(Cc1cccs1)NCC1(O)CCSC1 (configuration not stated)

[out]
1: 115.9; 2: 0.8903

[in] For CCN1CCc2c(sc3c2C(=O)NC(/C=C/c2ccco2)N3)C1 (configuration not stated) , what is its reported Percent Effect?
[out] 144

----------
# System: Wolbachia pipientis
# RUN DESCRIPTION: Anti-Wolbachia Cell-Based Screen
# Format: functional
# Design: scale not given: in the data most compounds retested in dose-response had high values
# MEASUREMENT CONTEXT: 5 µM
Out of some 48,000 compounds screened, about 13,000 (27%) showed an effect of 50% or more. Some of the results follow.
Decision: Percent Effect compared against -20%; not below it gives t, below it gives f.

[in] Confirm if Percent Effect reported for the compound `O=C(O)C(F)(F)F.O=C1[C@H]2CN(CC3CCOCC3)C[C@H]2CN1Cc1cccc(F)c1` is -20% or above.
[out] t

[in] Hi team, for `CC(C)(C)CC(=O)Nc1ncn(CC(=O)NCc2ccccc2)n1` , is the recorded Percent Effect at or above -20%?
[out] t

[in] Exam item: decide whether the reported Percent Effect for `Cc1cccnc1[C@H](C)NC(=O)c1cccc(CC2CCNCC2)c1` is at least -20%.
[out] f

[in] Is Percent Effect for `COc1ccc(CN2C[C@@H]3CN(CCO)C[C@@H]3C2=O)cc1` at or above -20%?
[out] t

[in] Exam item: decide whether the reported Percent Effect for `Cn1nccc1C1CCN(Cc2csc(-c3ncccn3)n2)CC1` is at least -20%.
[out] t

[in] hey, is Percent Effect for this one >= -20%? `COc1ccc(CN2C[C@@H]3COC[C@H](N4CCN(C)CC4)[C@@H]3C2)cc1.O=C(O)C(F)(F)F.O=C(O)C(F)(F)F.O=C(O)C(F)(F)F`
[out] f

[in] Kindly determine if Percent Effect recorded for `O=C1CN(c2ccc(CNC(=O)c3ccc[nH]3)cc2F)CCN1` is above or exactly -20%.
[out] t
